- tested.system: human recombinant estrogen receptor alpha (Homo sapiens)
- Sequence (P03372 whole entry): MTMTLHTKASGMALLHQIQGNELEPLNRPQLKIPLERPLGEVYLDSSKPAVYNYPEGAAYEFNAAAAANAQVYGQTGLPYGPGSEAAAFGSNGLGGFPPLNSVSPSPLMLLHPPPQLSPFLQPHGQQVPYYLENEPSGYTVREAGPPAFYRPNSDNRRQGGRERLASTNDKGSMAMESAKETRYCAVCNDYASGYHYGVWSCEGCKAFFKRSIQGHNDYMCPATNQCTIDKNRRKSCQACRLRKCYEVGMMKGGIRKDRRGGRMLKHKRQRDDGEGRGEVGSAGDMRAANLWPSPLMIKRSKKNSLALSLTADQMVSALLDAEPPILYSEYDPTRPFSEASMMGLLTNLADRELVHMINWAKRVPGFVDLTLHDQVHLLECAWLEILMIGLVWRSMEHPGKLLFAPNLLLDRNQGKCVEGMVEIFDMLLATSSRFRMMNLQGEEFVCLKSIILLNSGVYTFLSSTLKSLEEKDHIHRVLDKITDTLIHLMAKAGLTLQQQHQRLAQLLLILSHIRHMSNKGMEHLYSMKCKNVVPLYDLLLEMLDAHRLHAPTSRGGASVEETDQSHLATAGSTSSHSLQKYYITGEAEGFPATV
- protocol.description: Estrogen receptor alpha binding assay ([3H] Estradiol displacement)
- test.conditions: IC50 Value, Estrogen Receptor Subtype Alpha, displacement of 0.5 nM [3H] Estradiol, 4.5 ng receptor protein, 2 hours at 25° C.
assay.readout: IC50
Returns: string containing the numeric result and its unit.

Field request: IC50 | item: `C/C(=C(/c1ccc(O)cc1)c1cccc2cc(O)ccc12)c1ccc(OCCN2CCCC2)cc1` 5.54 nM
